# assay-notes: Pooled analysis of pharmacokinetic parameters in healthy subjects
# Format: in vivo, human
# test-settings: human, plasma; oral administration; read-out: median time to peak plasma concentration (Tmax)
measured-parameter: Tmax

Ask: Param item = O=c1[nH]c2cccc(N3CCN(Cc4cccc(-c5ccccc5)c4)CC3)c2o1 [bifeprunox, monomethanesulfonate] ; retrieve measured Tmax.
Reply: ~2 h

* * *

# assay-notes: Pooled analysis of pharmacokinetic parameters in healthy subjects
# Assay type: in vivo, human
# test-settings: human, plasma, oral; multiple dose, 20 and 40 mg/day, median (range); read-out: Tmax
measured-parameter: Tmax
Lab note: write values as number then unit, every time.

Ask: # query: Tmax of entry O=c1[nH]c2cccc(N3CCN(Cc4cccc(-c5ccccc5)c4)CC3)c2o1 [bifeprunox, monomethanesulfonate]
Reply: 2 h

* * *

# assay-notes: Pooled analysis of pharmacokinetic parameters in healthy subjects
# Assay type: in vivo, human
# test-settings: human, plasma, po; multiple dose, 20 and 40 mg/day, mean ± SD; read-out: CLbw/F (weight normalized oral clearance) (converted)
measured-parameter: CL/F (mL/min/kg)
Respond with the bare value in mL/min/kg.

Ask: Recorded CL/F for O=c1[nH]c2cccc(N3CCN(Cc4cccc(-c5ccccc5)c4)CC3)c2o1 [bifeprunox, monomethanesulfonate] , please?
Reply: 15

* * *

# assay-notes: Pooled analysis of pharmacokinetic parameters in healthy subjects
# Format: in vivo, human
# test-settings: human, plasma, oral; multiple dose, 20 and 40 mg/day, dose normalized to 20 mg, mean ± SD; read-out: AUC0-24
measured-parameter: AUC(0-t) (ng·h/mL)
Answer in ng·h/mL, number only, no unit symbol.

Ask: // AUC(0-t) lookup, key: O=c1[nH]c2cccc(N3CCN(Cc4cccc(-c5ccccc5)c4)CC3)c2o1 [bifeprunox, monomethanesulfonate]
Reply: 402

* * *

# assay-notes: Pooled analysis of pharmacokinetic parameters in healthy subjects
# Format: in vivo, human
# test-settings: human, in vivo
# Protocol: The pharmacokinetics of bifeprunox in healthy subjects were investigated based on a pooled analysis of pharmacokinetic (PK) parameters from 21 clinical pharmacology studies. […] In healthy subjects and patients with schizophrenia, the maximum tolerated single dose of bifeprunox was 0.5 mg. […] PK parameters describing absorption, distribution, metabolism, and elimination were calculated based on non-compartmental analysis. […]
measured-parameter: half-life (h)
The reply should contain only the number, in h.

Ask: Record request: half-life value, item O=c1[nH]c2cccc(N3CCN(Cc4cccc(-c5ccccc5)c4)CC3)c2o1 [bifeprunox, monomethanesulfonate]
Reply: 14

* * *

# assay-notes: Population PK assessment in patients with schizophrenia
# Assay type: in vivo, human
# test-settings: human, in vivo, oral; schizophrenia patients (SP); read-out: Vz/F
# From the text: The pharmacokinetics of bifeprunox in healthy subjects were investigated based on a pooled analysis of pharmacokinetic (PK) parameters from 21 clinical pharmacology studies. The pooled analysis included PK profiles obtained following single and multiple doses administered to 132 and 399 subjects, respectively, and explored the potential effects of age, gender, body weight and race. […]
measured-parameter: Vd/F

Ask: May I ask what Vd/F has been recorded for O=c1[nH]c2cccc(N3CCN(Cc4cccc(-c5ccccc5)c4)CC3)c2o1 [bifeprunox, monomethanesulfonate] ?
Reply: ~1100 L

* * *

# assay-notes: Pooled analysis of pharmacokinetic parameters in healthy subjects
# Format: in vivo, human
# test-settings: human, plasma, oral; healthy subjects; read-out: Apparent volume of distribution (Vz/F)
measured-parameter: Vd/F (L)
Response body: numeric value in L, unit text excluded.

Ask: Which Vd/F reading was recorded for the compound O=c1[nH]c2cccc(N3CCN(Cc4cccc(-c5ccccc5)c4)CC3)c2o1 [bifeprunox, monomethanesulfonate] ?
Reply: 1300

* * *

# assay-notes: Pooled analysis of pharmacokinetic parameters in healthy subjects
# Format: in vivo, human
# test-settings: human, plasma, oral; 40 mg, multiple dose; read-out: mean AUC0-24
measured-parameter: AUC(0-t) (ng·h/mL)
Field format: number, assumed ng·h/mL, no unit text.

Ask: Need AUC(0-t), item O=c1[nH]c2cccc(N3CCN(Cc4cccc(-c5ccccc5)c4)CC3)c2o1 [bifeprunox, monomethanesulfonate]
Reply: 825

* * *

# assay-notes: Pooled analysis of pharmacokinetic parameters in healthy subjects
# Assay type: in vivo, human
# test-settings: human, plasma, oral; multiple dose, 20 and 40 mg/day, dose normalized to 20 mg, mean ± SD
# Method: The pharmacokinetics of bifeprunox in healthy subjects were investigated based on a pooled analysis of pharmacokinetic (PK) parameters from 21 clinical pharmacology studies. […] In healthy subjects and patients with schizophrenia, the maximum tolerated single dose of bifeprunox was 0.5 mg. […] PK parameters describing absorption, distribution, metabolism, and elimination were calculated based on non-compartmental analysis. […]
measured-parameter: Cmax (µg/mL)
Use µg/mL as the unit, but write only the number.

Ask: Endpoint output: Cmax of O=c1[nH]c2cccc(N3CCN(Cc4cccc(-c5ccccc5)c4)CC3)c2o1 [bifeprunox, monomethanesulfonate] . Value?
Reply: 0.0621

* * *

# assay-notes: Pooled analysis of pharmacokinetic parameters in healthy subjects
# Type: in vivo, human
# test-settings: human, in vivo, multiple dose, 20 and 40 mg/day, mean ± SD; read-out: T1/2 (converted)
measured-parameter: half-life (min)
// return numeric value only (unit: min, not printed)

Ask: Which half-life reading was recorded for the molecule O=c1[nH]c2cccc(N3CCN(Cc4cccc(-c5ccccc5)c4)CC3)c2o1 [bifeprunox, monomethanesulfonate] ?
Reply: 864

* * *

# System: plasma proteins
# assay-notes: Plasma protein binding
# Type: in vitro ADME
# test-settings: human, healthy patients as well as those with renal or hepatic impairment, read-out: bound to plasma proteins
measured-parameter: fraction unbound

Ask: Given O=c1[nH]c2cccc(N3CCN(Cc4cccc(-c5ccccc5)c4)CC3)c2o1 [bifeprunox, monomethanesulfonate] , state its recorded fraction unbound.
Reply: < 0.01

* * *

# assay-notes: Pooled analysis of pharmacokinetic parameters in healthy subjects
# Assay type: in vivo, human
# test-settings: human, in vivo
# Method: The pharmacokinetics of bifeprunox in healthy subjects were investigated based on a pooled analysis of pharmacokinetic (PK) parameters from 21 clinical pharmacology studies. […] In healthy subjects and patients with schizophrenia, the maximum tolerated single dose of bifeprunox was 0.5 mg. […] PK parameters describing absorption, distribution, metabolism, and elimination were calculated based on non-compartmental analysis. […]
measured-parameter: Vd/F

Ask: Report Vd/F for O=c1[nH]c2cccc(N3CCN(Cc4cccc(-c5ccccc5)c4)CC3)c2o1 [bifeprunox, monomethanesulfonate] please.
Reply: ~1300 L

* * *

# assay-notes: Pooled analysis of pharmacokinetic parameters in healthy subjects
# Type: in vivo, human
# test-settings: human, plasma, oral; 20 mg, multiple dose; read-out: mean AUC0-24
measured-parameter: AUC(0-t)
Value and unit, in that order.

Ask: Which AUC(0-t) value belongs to O=c1[nH]c2cccc(N3CCN(Cc4cccc(-c5ccccc5)c4)CC3)c2o1 [bifeprunox, monomethanesulfonate] ?
Reply: 382 ng·h/mL

* * *

# assay-notes: Population PK assessment in patients with schizophrenia
# Assay type: in vivo, human
# test-settings: human, in vivo, oral; schizophrenia patients (SP)
measured-parameter: half-life (min)
Your answer should be a plain number; it is taken to be in min.

Ask: Query (compound): O=c1[nH]c2cccc(N3CCN(Cc4cccc(-c5ccccc5)c4)CC3)c2o1 [bifeprunox, monomethanesulfonate] ; field requested: half-life
Reply: 900
